Details: in methanol, 293.15 K
measurement.kind: solubility (mole fraction)

{"mol": "Nc1ccc(Br)nn1", "quantitative.readout": 0.00131}

---

Details: in water, 303.15 K

{"mol": "Nc1ccc(Br)nn1", "solubility (mole fraction)": "3.7e-05"}

---

Details: in ethanol, 298.15 K

{"mol": "Nc1ccc(Br)nn1", "solubility (mole fraction)": 0.0029}

---

Settings: in toluene, 318.15 K
measurement.kind: solubility (mole fraction)

{"mol": "Nc1ccc(Br)nn1", "result": 0.0196}

---

Details: in propylene glycol, 303.15 K
measurement.kind: solubility (mole fraction)

{"mol": "Nc1ccc(Br)nn1", "result": 0.00281}

---

Settings: in n-propanol, 323.15 K

{"mol": "Nc1ccc(Br)nn1", "solubility (mole fraction)": 0.0085}

---

Conditions: in propylene glycol, 278.15 K
measurement.kind: solubility (mole fraction)

{"mol": "Nc1ccc(Br)nn1", "measurement.kind": "solubility (mole fraction)", "quantitative.readout": 0.00191}

---

Conditions: in propylene glycol, 318.15 K

{"mol": "Nc1ccc(Br)nn1", "solubility (mole fraction)": 0.00357}

---

Conditions: in n-propanol, 288.15 K

{"mol": "Nc1ccc(Br)nn1", "solubility (mole fraction)": 0.00401}

---

Conditions: in ethanol, 318.15 K

{"mol": "Nc1ccc(Br)nn1", "solubility (mole fraction)": 0.00399}

---

Details: in acetone, 293.15 K

{"mol": "Nc1ccc(Br)nn1", "solubility (mole fraction)": 0.0102}

---

Conditions: in methanol, 283.15 K

{"mol": "Nc1ccc(Br)nn1", "solubility (mole fraction)": 0.00115}

---

Settings: in ethanol, 278.15 K

{"mol": "Nc1ccc(Br)nn1", "solubility (mole fraction)": 0.00216}

---

Conditions: in ethanol, 293.15 K

{"mol": "Nc1ccc(Br)nn1", "solubility (mole fraction)": 0.0027}

---

Settings: in methanol, 308.15 K
measurement.kind: solubility (mole fraction)

{"mol": "Nc1ccc(Br)nn1", "quantitative.readout": 0.00165}

---

Settings: in toluene, 303.15 K
measurement.kind: solubility (mole fraction)

{"mol": "Nc1ccc(Br)nn1", "measurement.kind": "solubility (mole fraction)", "quantitative.readout": 0.0154}

---

Details: in water, 308.15 K
measurement.kind: solubility (mole fraction)

{"mol": "Nc1ccc(Br)nn1", "measurement.kind": "solubility (mole fraction)", "quantitative.readout": "3.97e-05"}

---

Conditions: in DMF, 298.15 K
measurement.kind: solubility (mole fraction)

{"mol": "Nc1ccc(Br)nn1", "quantitative.readout": 0.0167}

---

Settings: in isopropanol, 313.15 K
measurement.kind: solubility (mole fraction)

{"mol": "Nc1ccc(Br)nn1", "quantitative.readout": 0.00586}

---

Details: in DMF, 278.15 K
measurement.kind: solubility (mole fraction)

{"mol": "Nc1ccc(Br)nn1", "quantitative.readout": 0.0126}

---

Settings: in propylene glycol, 313.15 K

{"mol": "Nc1ccc(Br)nn1", "solubility (mole fraction)": 0.0033}

---

Conditions: in propylene glycol, 288.15 K

{"mol": "Nc1ccc(Br)nn1", "solubility (mole fraction)": 0.0022}

---

Details: in n-propanol, 278.15 K

{"mol": "Nc1ccc(Br)nn1", "solubility (mole fraction)": 0.00316}
